Target: Lysine-specific demethylase 5B (Homo sapiens, UniProt Q9UGL1)
Sequence (Q9UGL1 whole entry): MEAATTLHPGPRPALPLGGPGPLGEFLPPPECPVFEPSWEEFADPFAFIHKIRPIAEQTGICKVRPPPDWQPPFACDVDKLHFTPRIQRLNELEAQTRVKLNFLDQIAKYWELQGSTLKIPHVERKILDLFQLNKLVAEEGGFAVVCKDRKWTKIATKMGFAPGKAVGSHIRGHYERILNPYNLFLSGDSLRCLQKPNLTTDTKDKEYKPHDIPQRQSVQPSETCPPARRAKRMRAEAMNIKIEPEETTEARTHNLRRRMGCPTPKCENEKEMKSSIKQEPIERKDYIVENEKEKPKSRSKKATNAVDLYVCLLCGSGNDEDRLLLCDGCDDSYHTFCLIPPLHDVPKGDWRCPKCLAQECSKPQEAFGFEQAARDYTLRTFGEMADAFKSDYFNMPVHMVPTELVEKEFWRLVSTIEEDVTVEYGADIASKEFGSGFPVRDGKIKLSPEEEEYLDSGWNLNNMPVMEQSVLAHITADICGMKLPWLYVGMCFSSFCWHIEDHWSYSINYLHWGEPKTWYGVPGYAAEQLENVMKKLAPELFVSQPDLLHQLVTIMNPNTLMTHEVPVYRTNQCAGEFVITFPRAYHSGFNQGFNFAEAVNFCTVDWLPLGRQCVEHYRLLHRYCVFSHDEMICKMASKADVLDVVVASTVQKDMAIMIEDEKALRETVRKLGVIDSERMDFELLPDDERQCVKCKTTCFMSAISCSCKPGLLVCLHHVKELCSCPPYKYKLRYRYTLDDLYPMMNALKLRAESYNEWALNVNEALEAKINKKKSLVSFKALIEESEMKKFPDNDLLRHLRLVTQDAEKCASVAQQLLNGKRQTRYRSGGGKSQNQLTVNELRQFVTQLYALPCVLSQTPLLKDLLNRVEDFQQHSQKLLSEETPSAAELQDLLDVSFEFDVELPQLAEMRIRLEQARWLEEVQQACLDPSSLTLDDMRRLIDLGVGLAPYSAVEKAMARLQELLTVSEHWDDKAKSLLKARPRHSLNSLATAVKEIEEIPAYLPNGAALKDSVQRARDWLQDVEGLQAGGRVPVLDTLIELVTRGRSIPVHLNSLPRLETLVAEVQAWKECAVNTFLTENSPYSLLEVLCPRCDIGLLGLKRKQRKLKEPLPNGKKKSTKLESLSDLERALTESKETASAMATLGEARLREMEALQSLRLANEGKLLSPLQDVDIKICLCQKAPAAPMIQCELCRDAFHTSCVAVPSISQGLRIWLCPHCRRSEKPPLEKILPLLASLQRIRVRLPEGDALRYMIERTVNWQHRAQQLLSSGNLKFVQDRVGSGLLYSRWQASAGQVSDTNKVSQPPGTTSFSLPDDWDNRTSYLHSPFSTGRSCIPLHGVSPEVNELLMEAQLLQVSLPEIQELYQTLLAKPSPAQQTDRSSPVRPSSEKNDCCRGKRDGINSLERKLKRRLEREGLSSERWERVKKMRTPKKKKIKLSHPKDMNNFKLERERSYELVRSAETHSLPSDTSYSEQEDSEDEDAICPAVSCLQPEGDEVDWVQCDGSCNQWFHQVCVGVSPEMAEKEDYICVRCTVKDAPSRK
Test: Enzymatic Assay: The ability of test compounds to inhibit the activity of Jarid1B was determined in 384-well plate format under the following reaction conditions: 0.8 nM Jarid1B, 300 nM H3K4me3-biotin labeled peptide (Anaspec cat #64357), 2 μM alpha-ketoglutaric acid in assay buffer of 50 mM HEPES, pH7.3, 0.005% Brij35, 0.5 mM TCEP, 0.2 mg/ml BSA, 50 μM sodium L-ascorbate, and 2 μM ammonium iron(II) sulfate. Reaction product was determined quantitatively by TR-FRET after the addition of detection reagent Phycolink Streptavidin-allophycocyanin (Prozyme) and Europium-anti-mono- or di-methylated histone H3 lysine 4 (H3K4me1-2) antibody (PerkinElmer) in the presence of 5 mM EDTA in LANCE detection buffer (PerkinElmer) at a final concentration of 25 nM and 1 nM, respectively.The assay reaction was initiated by the following: 2 μl of the mixture of 900 nM H3K4me3-biotin labeled peptide and 6 μM alpha-ketoglutaric acid with 2 μl of 11-point serial diluted inhibitor in 3% DMSO was added to each well of the plate, followed by the addition of 2 μl of 2.4 nM Jarid1B to initiate the reaction. The reaction mixture was incubated at room temperature for 30 minutes, and terminated by the addition of 6 μl of 5 mM EDTA in LANCE detection buffer containing 50 nM Phycolink Streptavidin-allophycocyanin and 2 nM Europium-anti-H3K4me1-2 antibody.
measured-attribute: IC50

Record summary for `CC1(C)CCN(C(=O)c2cc3nccc(C(=O)O)c3[nH]2)CC1` : reported IC50 = < 100 nM
